# PROTOCOL: TK assay, oral mixture dosing: serum concentrations and noncompartmental analysis (sparse data)
# CONDITION_DESCRIPTION: female, New Zealand white (INRA 1777 line), rabbit, in vivo, po, Serum concentration, oral, rabbit 14, 0.37 h; MEHP after oral DEHP
RECORDED_ENDPOINT: concentration at 0.37 h (µM)
Response body: numeric value in µM, unit text excluded.

// concentration at 0.37 h lookup, compound = `O=C(O)C(F)(F)C(F)(F)C(F)(F)C(F)(F)C(F)(F)C(F)(F)C(F)(F)F` , result: 4.79

---

# PROTOCOL: TK assay, oral mixture dosing: serum concentrations and noncompartmental analysis (sparse data)
# CONDITION_DESCRIPTION: female, New Zealand white (INRA 1777 line), rabbit, in vivo, po
What log10(half-life) was measured for each of the following?
A value of 2 here means half-life of 100 in days, since values are log10.

// log10(half-life) lookup, compound = `Brc1ccc(Oc2ccc(Br)cc2Br)c(Br)c1` , result: 1.05

// log10(half-life) lookup, compound = `ClC(Cl)=C(c1ccc(Cl)cc1)c1ccc(Cl)cc1` , result: 1.03

// log10(half-life) lookup, compound = `Clc1c(Cl)c(Cl)c(Cl)c(Cl)c1Cl` , result: 1.53

// log10(half-life) lookup, compound = `Cl[C@H]1[C@H](Cl)[C@@H](Cl)[C@H](Cl)[C@@H](Cl)[C@@H]1Cl` , result: 1.12

// log10(half-life) lookup, compound = `O=C(O)C(F)(F)C(F)(F)C(F)(F)C(F)(F)C(F)(F)C(F)(F)C(F)(F)F` , result: 0.51

---

# PROTOCOL: TK assay, oral mixture dosing: serum concentrations and noncompartmental analysis (sparse data)
# CONDITION_DESCRIPTION: female, New Zealand white (INRA 1777 line), rabbit, in vivo, po
What log10 of Cmax was measured for each of the following?
A value of 2 here means Cmax of 100 in nM, since values are log10.

// log10 of Cmax lookup, compound = `Cl[C@H]1[C@H](Cl)[C@@H](Cl)[C@H](Cl)[C@@H](Cl)[C@@H]1Cl` , result: 2.47

// log10 of Cmax lookup, compound = `ClC(Cl)=C(c1ccc(Cl)cc1)c1ccc(Cl)cc1` , result: 2.76

// log10 of Cmax lookup, compound = `Brc1ccc(Oc2ccc(Br)cc2Br)c(Br)c1` , result: 2.81

// log10 of Cmax lookup, compound = `O=C(O)C(F)(F)C(F)(F)C(F)(F)C(F)(F)C(F)(F)C(F)(F)C(F)(F)F` , result: 3.96

// log10 of Cmax lookup, compound = `Clc1c(Cl)c(Cl)c(Cl)c(Cl)c1Cl` , result: 2.70

---

# PROTOCOL: in vivo
# CONDITION_DESCRIPTION: female, New Zealand white, rabbit, in vivo, iv, Serum concentration
RECORDED_ENDPOINT: concentration at 0.67 h (nM)
Response body: numeric value in nM, unit text excluded.

// concentration at 0.67 h lookup, molecule = `Clc1c(Cl)c(Cl)c(Cl)c(Cl)c1Cl` , result: 19

// concentration at 0.67 h lookup, molecule = `ClC(Cl)=C(c1ccc(Cl)cc1)c1ccc(Cl)cc1` , result: 900

---

# PROTOCOL: Estimation of loading and daily maintenance doses and NLME model simulations
# Design: species or system female rabbits
# CONDITION_DESCRIPTION: oral, daily, scaled to the targeted CSS of Table 6
RECORDED_ENDPOINT: Computed maintenance dose (µg/kg)
Response body: numeric value in µg/kg, unit text excluded.

// Computed maintenance dose lookup, compound = O=S(=O)(O)C(F)(F)C(F)(F)C(F)(F)C(F)(F)C(F)(F)C(F)(F)C(F)(F)C(F)(F)F [PFOS, perfluorooctane sulfonate] , result: 1.3

// Computed maintenance dose lookup, compound = `O=S(=O)(c1ccc(O)cc1)c1ccc(O)cc1` , result: 122

// Computed maintenance dose lookup, compound = `Cl[C@H]1[C@H](Cl)[C@@H](Cl)[C@H](Cl)[C@@H](Cl)[C@@H]1Cl` , result: 11

// Computed maintenance dose lookup, compound = `ClC(Cl)=C(c1ccc(Cl)cc1)c1ccc(Cl)cc1` , result: 95

// Computed maintenance dose lookup, compound = `Brc1ccc(Oc2ccc(Br)cc2Br)c(Br)c1` , result: 1.3

// Computed maintenance dose lookup, compound = CCCCC(CC)COC(=O)c1ccccc1C(=O)OCC(CC)CCCC (stereo not shown) [DEHP, di(2-ethylhexyl)phthalate] , result: 780

// Computed maintenance dose lookup, compound = `O=C(O)C(F)(F)C(F)(F)C(F)(F)C(F)(F)C(F)(F)C(F)(F)C(F)(F)F` , result: 9.5

---

What Tmax was measured for each of the following?
# PROTOCOL: TK assay, oral mixture dosing: serum concentrations and noncompartmental analysis (sparse data)
# CONDITION_DESCRIPTION: oral mixture dosing, NCA, n=12; MEHP after oral DEHP
# Description: The experiment was carried out on thirty 10-wk old female New Zealand white rabbits (INRA 1777 line) weighing 2.37±0.14kg . […] Residual concentrations of the compounds, and their possible evolution over time, were determined by sampling six entirely untreated rabbits during the TK study on the day of drug administrations, then 14 d and 28 d later. The volume administered was adjusted to the animal’s body weight (BW) recorded the day before. […]
Quote the value and follow it with the unit of measurement.

// Tmax lookup, compound = O=C(O)[C@H]1O[C@@H](Oc2ccc(S(=O)(=O)c3ccc(O)cc3)cc2)[C@H](O)[C@@H](O)[C@@H]1O [BPSG, bisphenol S glucuronide] , result: 0.27 h

// Tmax lookup, compound = `O=S(=O)(c1ccc(O)cc1)c1ccc(O)cc1` , result: 0.23 h

// Tmax lookup, compound = `O=S(=O)(O)C(F)(F)C(F)(F)C(F)(F)C(F)(F)C(F)(F)C(F)(F)C(F)(F)C(F)(F)F` , result: 24 h

// Tmax lookup, compound = CCCCC(CC)COC(=O)c1ccccc1C(=O)O (stereo not shown) [MEHP, mono(2-ethylhexyl)phthalate] , result: 4.05 h

---

# PROTOCOL: Estimation of loading and daily maintenance doses and NLME model simulations
# Parameters: species or system female rabbits
# CONDITION_DESCRIPTION: oral, to rapidly attain serum concentration of 1 ng/mL; Vss×Css/F; DEHP dose for MEHP in serum
What log10 Loading dose was measured for each of the following?
A value of 2 here means Loading dose of 100 in mg/kg, since values are log10.

// log10 Loading dose lookup, molecule = `O=S(=O)(c1ccc(O)cc1)c1ccc(O)cc1` , result: -1.49

// log10 Loading dose lookup, molecule = `ClC(Cl)=C(c1ccc(Cl)cc1)c1ccc(Cl)cc1` , result: -1.31

// log10 Loading dose lookup, molecule = `Cl[C@H]1[C@H](Cl)[C@@H](Cl)[C@H](Cl)[C@@H](Cl)[C@@H]1Cl` , result: -1.43

// log10 Loading dose lookup, molecule = `Brc1ccc(Oc2ccc(Br)cc2Br)c(Br)c1` , result: -1.33

// log10 Loading dose lookup, molecule = CCCCC(CC)COC(=O)c1ccccc1C(=O)OCC(CC)CCCC (stereo not shown) [DEHP, di(2-ethylhexyl)phthalate] , result: -2.36

// log10 Loading dose lookup, molecule = `O=C(O)C(F)(F)C(F)(F)C(F)(F)C(F)(F)C(F)(F)C(F)(F)C(F)(F)F` , result: -3.72

// log10 Loading dose lookup, molecule = `O=S(=O)(O)C(F)(F)C(F)(F)C(F)(F)C(F)(F)C(F)(F)C(F)(F)C(F)(F)C(F)(F)F` , result: -3.43

---

What concentration at 23.98 h was measured for each of the following?
# PROTOCOL: TK assay, oral mixture dosing: serum concentrations and noncompartmental analysis (sparse data)
# CONDITION_DESCRIPTION: female, New Zealand white (INRA 1777 line), rabbit, in vivo, po, Serum concentration, oral, rabbit 15, 23.98 h; MEHP after oral DEHP
Response body: numeric value in nM, unit text excluded.

// concentration at 23.98 h lookup, compound = Brc1ccc(Oc2ccc(Br)cc2Br)c(Br)c1 [BDE-47, 2,2′,4,4′-tetrabromodiphenyl ether] , result: 300

// concentration at 23.98 h lookup, compound = Cl[C@H]1[C@H](Cl)[C@@H](Cl)[C@H](Cl)[C@@H](Cl)[C@@H]1Cl [β-HCH, β-hexachlorocyclohexane] , result: 190

// concentration at 23.98 h lookup, compound = O=C(O)C(F)(F)C(F)(F)C(F)(F)C(F)(F)C(F)(F)C(F)(F)C(F)(F)F [PFOA, perfluorooctanoic acid] , result: 2340

---

What concentration at 672.02 h was measured for each of the following?
# PROTOCOL: TK assay, oral mixture dosing: serum concentrations and noncompartmental analysis (sparse data)
# CONDITION_DESCRIPTION: female, New Zealand white (INRA 1777 line), rabbit, in vivo, po, Serum concentration, rabbit 22, 672.02 h
Quote the value and follow it with the unit of measurement.

// concentration at 672.02 h lookup, molecule = `Brc1ccc(Oc2ccc(Br)cc2Br)c(Br)c1` , result: 17 nM

// concentration at 672.02 h lookup, molecule = `O=C(O)C(F)(F)C(F)(F)C(F)(F)C(F)(F)C(F)(F)C(F)(F)C(F)(F)F` , result: 0.5 nM

// concentration at 672.02 h lookup, molecule = `Cl[C@H]1[C@H](Cl)[C@@H](Cl)[C@H](Cl)[C@@H](Cl)[C@@H]1Cl` , result: 13 nM
